Data provenance: PubChem BioAssay AID2100

Tested on: Lysosomal alpha-glucosidase (Homo sapiens)
Protocol details: qHTS Assay for Inhibitors and Activators of Human alpha-Glucosidase Cleavage of Glycogen;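 note: the screen sought inhibitors and activators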
Assay context: recombinant GAA, glycogen substrate, Amplex Red glucose oxidase fluorescence; series mostly up to 76.3 µM
The whole screen tested about 300,000 compounds, of which about 1,200 (0.4%) were called active. Inconclusive results (about 3%) are left out. For the sample, actives were picked, then their nearest neighbours and some compounds at random.
Measured metric: outcome

Give the reported outcome for this molecule. CC1=C(C(=O)OCc2ccc(C)cc2)C(c2ccccc2Cl)CC(=O)N1 (stereo not given)
inactive

Supply reported outcome belonging to this molecule: Cc1c(C(=O)N2CCCC2)oc2c1-c1nn(CC(=O)NCc3ccc(OC(C)C)cc3)cc1CC2
inactive

Retrieve outcome measured for O=S(=O)(c1ccc(Br)cc1)c1nnn2c1nc(N1CCOCC1)c1sccc12 and print it.
inactive

Annotate the molecule COc1cccc(-c2nc(CS(=O)(=O)CC(=O)N3CCN(c4cc(C)ccc4C)CC3)c(C)o2)c1 with its measured outcome.
inactive

Quickly give me recorded outcome for CCN(CC)S(=O)(=O)c1nnc(NC(=O)COc2ccccc2Cl)s1
inactive

***
Please list outcome recorded for the molecule COc1ccc(Cn2c(=O)n(-c3ccccc3C)c(=O)c3c4c(sc32)CN(C(C)=O)CC4)cc1
inactive

Identify measured outcome associated with CC(=O)c1c(C)n(S(=O)(=O)c2ccc(Cl)cc2)c2ccc(NS(=O)(=O)c3ccc(Cl)cc3)cc12
inactive

Read off the recorded outcome for Cc1ccc(Cl)cc1NC(=O)/C(C#N)=C\c1cn(Cc2ccc(F)cc2)c2ccccc12
inactive

Quick one: give measured outcome for Cc1ccccc1CNC(=O)CCCn1nc(C)c2sc3ccccc3c2c1=O
inactive

Could you please provide reported outcome for O=C(Nc1ccccc1-c1nc2ccccc2[nH]c1=O)c1cccs1 ? Thanks!
inactive

###

Tested on: Lysosomal alpha-glucosidase (Homo sapiens) (UniProt P10253)
Protocol details: qHTS Assay for Inhibitors and Activators of Human alpha-Glucosidase Cleavage of Glycogen;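 note: the screen sought inhibitors and activators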
Assay context: recombinant GAA, glycogen substrate, Amplex Red glucose oxidase fluorescence; series mostly up to 76.3 µM
Hit rate of the full screen: of about 300,000 compounds, about 1,200 (0.4%) were called active. Not shown: some 3% with an inconclusive outcome. The call rests on the fitted dose curve; in most records, active means well fitted inhibition curve with a large enough effect; inconclusive means small, poorly fitted or top-dose-only effect, or another doubt; inactive means no such curve, though single readings can be large or run the other way. Many of the other results were omitted from the sample, so actives are more common in it than they were.
Hi there, use one of these labels in your reply, thanks! True (active), False (inactive)

Recorded call for CC1=Nc2cc(C(=O)N3CCC(C)CC3)ccc2Sc2ccc(Cl)cc21 ?
False

Which outcome did this test record for the compound COc1ccc(N2CCN(S(=O)(=O)c3ccc4c(c3)NC(=O)C(C)C(=O)N4)CC2)cc1 (stereo not given) ?
False

Call for entry CCOc1ccc(N2CC(C)Cn3c2nc2c3c(=O)n(Cc3c(F)cccc3Cl)c(=O)n2C)cc1 (stereo not given) :
False

Which outcome was assigned to CCc1ccc(C(=O)CC2(O)C(=O)N(CCc3ccccc3)c3ccc(Br)cc32)cc1 (stereo not given) in this test?
False

In this assay, the call recorded for CC(=O)c1ccc(NC(=O)c2nc(-c3ccc(C)cc3)n3c2CCCCC3)cc1 was what?
False

What did this assay record as the result for Cc1cc(C)c2c(-n3cccc3)c(C(=O)NNS(=O)(=O)c3ccc(F)cc3)sc2n1 ?
True

In this assay, the call recorded for COC(=O)Nc1sc2nc(C)cc(C)c2c1-n1cccc1 was what?
False

For this compound, state the assay outcome: Cc1cc(C)c2c(-n3cccc3)c(NC(=O)OCc3ccccc3)sc2n1
False

What call does the record list for O=C1CC(=O)Nc2cc(S(=O)(=O)N3CCN(c4cccc(C(F)(F)F)c4)CC3)ccc2N1 ?
False

Short answer needed: outcome of this test for C/C(=N\Nc1nc(Nc2ccccc2)nc(N2CCOCC2)n1)c1cccs1 ?
False

###

Tested on: Lysosomal alpha-glucosidase (Homo sapiens)
Protocol details: qHTS Assay for Inhibitors and Activators of Human alpha-Glucosidase Cleavage of Glycogen;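 note: the screen sought inhibitors and activators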
Assay context: recombinant GAA, glycogen substrate, Amplex Red glucose oxidase fluorescence; series mostly up to 76.3 µM
Among all 300,000 compounds or so, about 1,200 (0.4%) were called active. Not shown: some 3% with an inconclusive outcome. Calls follow the shape of the dose curve; as a rule, active = well fitted inhibition curve with a large enough effect; inconclusive = small, poorly fitted or top-dose-only effect, or another doubt; inactive = no such curve, though single readings can be large or run the other way. Only a selection was taken, and actives are over-represented in it overall.
Parameter call: string, one of active, inactive

Recorded call for Cc1cc(C)n2nc(C(=O)NC(C)(C)C)nc2n1 ?
inactive

Field: outcome | Entry: Cc1c(C)c2ccc(OCC(=O)N3CCC(C(=O)O)CC3)c(C)c2oc1=O
inactive

Test call for this molecule, please: Cc1ccc(CSc2nc3cccnc3n2Cc2ccc(C(=O)NC3CC3)cc2)cc1
inactive

Could you check what this test reported for COc1cc(Nc2nc(-c3ccc(OC)c(OC)c3)nc3ccccc23)cc(OC)c1 ?
inactive

Any idea what this test logged for O=C(CNC(=O)C1COc2ccccc2O1)N/N=C/c1cc(Br)c(O)c(Br)c1 (centres undefined) ?
inactive

Given O=C(Nc1nc2c(s1)CCCC2)c1ccccc1F , state the outcome it received in this test.
inactive

What did the test return for Cc1cc(C)n2nc(C(=O)N3CCN(Cc4ccc5c(c4)OCO5)CC3)nc2n1 ?
inactive

Returns: the outcome recorded for O=C(Nc1ccc2nc(SCC(=O)N3CCCc4ccccc43)sc2c1)c1ccc(Cl)cc1 in this assay.
inactive

Per the assay record, what outcome was assigned to Cc1c(CC(=O)N2CCN(C(=O)C3COc4ccccc4O3)CC2)c(=O)oc2c(O)c(O)ccc12 (centres undefined) ?
active

How was COc1ccc(-c2noc(CSc3nc4ccc(C)cc4[nH]3)n2)cc1 classified in this test?
inactive

Each molecule tested received a call. Report the one for COC(=O)c1sccc1NC(=S)Nc1ccc(C)cc1 .
inactive

Please state the recorded outcome for this molecule: COc1ccccc1C1=Nc2cccc3cccc(c23)N1
active

Test call, this molecule: N#C/C=C\Oc1ccc(Cl)cc1N
active

So what was the verdict on COc1ccc(CCNC(=O)c2cc(=O)c3c(C)cc(C)cc3o2)cc1OC in this test?
inactive

For this molecule, state the assay outcome: Cc1ccc(S(=O)(=O)Nc2ccccc2CNc2c(C)n(C)n(-c3ccccc3)c2=O)cc1
active

I'd appreciate the recorded outcome for Fc1ccccc1N=C1Nc2cccc3cccc1c23 from this test.
inactive

Assay outcome for CCOc1ccc(C2CC(=O)c3c([nH]c(C(=O)OCc4ccccc4)c3C)C2)cc1 (centres undefined) : what was it?
inactive

Call for entry O=C(CN1CCOCC1)Nc1ccccc1 :
inactive

For Cc1ccc(CCNC(=O)C2CCN(c3nnc(-n4cccc4CNc4ccc(C)cc4)s3)CC2)cc1 , what call appears in the results of this test?
inactive
